test system: Thrips tabaci; assay: Thrips tabaci (onion thrips) leaf disc test; assay type: in vivo; details: foliar, 144 h, application rate 200 ppm, sunflower leaf discs sprayed, mixed ages, 6 days after infestation, read-out: control (mortality)
Each entry below carries its recorded mortality at 200 ppm.

- compound: "CCN(C(=O)c1cc(-c2cnn(-c3c(C(F)(F)F)c(OS(=O)(=O)C(F)(C(F)(F)F)C(F)(F)F)nn3C)c2)cnc1Cl)C1(C#N)CC1 [Compound 26]"
  attribute-measured: "mortality at 200 ppm"
  observed: "≥ 80%"

mortality at 200 ppm reported for this compound CCN(C(=O)c1cc(-c2cnn(-c3c(C(F)(F)F)c(OS(=O)(=O)C(F)(F)C(F)(F)Cl)nn3C)c2)ccc1Cl)C1CC1 [Compound 10] : ≥ 80%

// mortality at 200 ppm lookup, compound = Cn1nc(OS(=O)(=O)C(F)(F)C(F)(F)Cl)c(C(F)(F)F)c1-n1cc(-c2ccc(Cl)c(C(=O)NC3(C#N)CC3)c2)cn1 [Compound 8] , result: ≥ 80%

Hey, just so you know, these numbers are from patent US11071300B2.
